- Test system: PRKCE
- CONDITION_PARAMETERS: concentration: 1 μM, replicates: in singlicate; n = 1;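 further: KINOMEscan kinase panel screen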
MEASURED_PROPERTY: %Inh (%)
Record the value in %, omitting the unit from your answer.

Cl.c1ccc(-c2ccc3c(Nc4ccc5[nH]ncc5c4)ccnc3c2)nc1 [GW440137]: 5
O=C(Nc1cccc(-c2nn3ccccc3c2-c2ccnc(Nc3cccc(C(F)(F)F)c3)n2)c1)c1c(F)cccc1F [GSK292658]: 0
COc1cc(Nc2ncc3c(C)nc(-c4cc5ccccc5[nH]4)n3n2)cc(OC)c1OC [GW869516]: 0
CNC(=O)c1ccccc1Nc1nc(Nc2ccc(N3CCOCC3)cc2)ncc1Cl.Cl [GSK1576028]: 64
Cn1cc(-c2[nH]c3cc(NC(=O)[C@H](N)C4CCCCC4)cc4c3c2C=NNC4=O)cn1: 79

In the following, a different compound is considered.
Look at this compound and give its reported %Inh. Cc1cccc(Nc2nc(N[C@H]3CCNC3)ncc2C(N)=O)c1.Cl [GSK2197149]
86

* * *

- Tested on: EPHA6
- CONDITION_PARAMETERS: concentration: 1 μM, replicates: in singlicate; n = 1
MEASURED_PROPERTY: %Inh (%)
Entry rule: numbers only, all in %.

What does the record list as %Inh for Cl.NC(=O)c1cccc(Nc2nccc(Nc3ccc(Oc4c(Cl)cccc4Cl)c(Cl)c3)n2)c1 ?
0

Item: COc1cc(Nc2ncc3c(C)nc(-c4cc5ccccc5[nH]4)n3n2)cc(OC)c1OC
0

Let us now turn to NCCCC(NC(=O)c1cc(Br)c(-c2ccnc3[nH]ccc23)s1)c1ccccc1.O=C(O)C(F)(F)F.O=C(O)C(F)(F)F (centres unmarked)
18

Also, Cc1ccc(S(=O)(=O)Nc2ccc(Nc3nccc(Nc4cccc5[nH]ncc45)n3)cc2)cc1 please.
0

# repeat for Cn1cc(-c2ccc3c(c2)CCN3C(=O)Cc2cccc(F)c2)c2c(N)ncnc21
15

Moving on to the next molecule: Cc1ccc(C)c(NC(=O)NC2CCN(c3ccnc(Nc4ccc(F)cc4)n3)C2)c1 (centres unmarked)
0

Also need CN(C)Cc1ccc(-c2ccc3c(Nc4ccc(Oc5ccccn5)cc4)ccnc3c2)o1 , thanks.
53

Okay, and O=C(Nc1n[nH]c2nc(-c3ccc(O)cc3)ccc12)C1CC1 ?
17

Also Cn1cc(-c2[nH]c3cc(NC(=O)[C@H](N)C4CCCCC4)cc4c3c2C=NNC4=O)cn1 ?
14

Then what about the molecule O=C(Nc1cccc(-c2nn3ccccc3c2-c2ccnc(Nc3cccc(C(F)(F)F)c3)n2)c1)c1c(F)cccc1F ?
7

Now give it for O=C(Nc1cccc(Oc2ccc3nc(NC(=O)C4CC4)cn3n2)c1)c1ccccc1C(F)(F)F too.
16

Entry to check: O=C(NC1CCN(c2ccnc(Nc3ccc(F)cc3)n2)C1)c1cc2ccccc2s1 (centres unmarked)
10

Same question for Fc1ccc(-c2ncn(C3CCNCC3)c2-c2ccnc(Oc3ccc(-c4ccccc4)cc3)n2)cc1 please.
17

Item: O=C(Nc1cccc(-c2nn3ccccc3c2-c2ccnc(Nc3cccc(F)c3)n2)c1)c1c(F)ccc(F)c1Cl
15

Now the same for COc1cccc(-c2ccc3c(NC(=O)C4CC4)n[nH]c3n2)c1
23

Another molecule to check: COc1ccc(Nc2nccc(N3CCC(NC(=O)Nc4cccc(OC)c4)C3)n2)cc1 (centres unmarked)
8

Thanks! And O=C(Nc1cccc(-c2nn3ncccc3c2-c2ccnc(Nc3ccccc3)n2)c1)c1c(F)cccc1F ?
8

* * *

- System: ABL1-nonphosphorylated
- CONDITION_PARAMETERS: concentration: 1 μM, replicates: in singlicate; n = 1
Below, each entry is listed alongside its reported %Inh.
Give your result in % as a bare value.

Worked examples, 7 compounds total:
COc1cc(Nc2ncc3c(C)nc(-c4cc5ccccc5[nH]4)n3n2)cc(OC)c1OC [GW869516]: 32
Cc1occc1-c1ncc(OC[C@@H](N)Cc2c[nH]c3ccccc23)cc1-c1ccc2[nH]nc(C)c2c1.O=C(O)C(F)(F)F [GSK682037]: 13
Cn1cc(-c2ccc3c(c2)CCN3C(=O)Cc2cccc(F)c2)c2c(N)ncnc21 [GSK2603358]: 58
Nc1n[nH]c2cnc(-c3ccccc3)cc12 [SB-642124]: 0
COc1cccc(NC(=O)NC2CCN(c3ccnc(Nc4cc(OC)c(OC)c(OC)c4)n3)C2)c1 (centres unmarked) [GSK1379763]: 0
Cc1ccc(C(=O)Nc2ccc(Nc3ccnc4cc(-c5nccs5)ccc34)cc2O)cc1.Cl [GW494702]: 57
Cc1ccc(C(=O)N2CC[C@@H](O)C2)cc1-n1c(C)cc(OCc2ccc(F)cc2F)c(Br)c1=O: 92.1

# get_value(readout='%Inh', item= CSc1cccc2c(-c3ccncn3)c(-c3ccc(F)cc3)nn12 [GW514786] )
0

* * *

- Test system: RIOK2
- CONDITION_PARAMETERS: concentration: 1 μM, replicates: in singlicate; n = 1
For each record, check the reported %Inh: if it is below 2% write criterion met, else write criterion not met.

COc1cccc(NC(=O)NC2CCN(c3ccnc(Nc4cc(OC)c(OC)c(OC)c4)n3)C2)c1 (stereo not shown) [GSK1379763]: criterion met
Cc1cccc(Nc2nc(N[C@H]3CCNC3)ncc2C(N)=O)c1.Cl [GSK2197149]: criterion not met
O=c1[nH]cc(-c2ccc(N3CCOCC3)cc2)c2sc(-c3cn[nH]c3)cc12 [GSK2276055]: criterion not met
COc1cc(Nc2nccc(N3CCC(NC(=O)Nc4cccc(C(C)=O)c4)C3)n2)cc(OC)c1OC (stereo not shown) [GSK1379753]: criterion met
O=C(Nc1ccccc1F)NC1CCN(c2ccnc(Nc3ccc(F)cc3)n2)CC1 [GSK1379800]: criterion met

In plain terms, does Cc1ccc(C)c(NC(=O)NC2CCN(c3ccnc(Nc4ccc(F)cc4)n3)C2)c1 (stereo not shown) [GSK1379720] come in under 2% for %Inh?
criterion met

* * *

Reported %Inh values are given for each entry in this list.
- Test system: DCAMKL2
- Construct: gene DCLK2
- CONDITION_PARAMETERS: concentration: 1 μM, replicates: in singlicate; n = 1
Please state the number and follow it with the unit.

CC(C)c1nc(-c2cccc(NS(=O)(=O)c3c(F)cccc3F)c2F)c(-c2ccnc(Nc3ccc(N4CCOCC4)nc3)n2)s1: 46%
C[C@@H]1CC[C@@H](C(=O)Nc2ccccc2)CN1c1cc(-c2ccc3c(N)n[nH]c3c2)nc(N)n1: 17%
Nc1ncc(-c2cccnc2)c2scc(-c3ccc4c(c3)CCN4C(=O)Cc3ccccc3)c12: 1%
COc1cccc(C(=O)Nc2cccc(Oc3ccc4nc(NC(=O)C5CC5)cn4n3)c2)c1: 17%
Cl.NC(=O)c1cccc(Nc2nccc(Nc3ccc(Oc4c(Cl)cccc4Cl)c(Cl)c3)n2)c1: 0%
O=C(Nc1n[nH]c2nc(-c3ccc(O)cc3)ccc12)C1CC1: 0%

Please give the measured %Inh for this molecule: COc1cc(Nc2nccc(N3CCC(NC(=O)c4cc5ccccc5s4)C3)n2)cc(OC)c1OC (centres unmarked)
14%

Another molecule: Fc1ccc(-c2ncn(C3CCNCC3)c2-c2ccnc(Oc3ccc(-c4ccccc4)cc3)n2)cc1
3%

Please do the same for COC(=O)Nc1nc2ccc(Oc3ccc(NC(=O)Nc4cc(C(F)(F)F)ccc4F)cc3)cc2n1C.Cl as well.
0%

* * *

Below, each entry is listed alongside its reported %Inh.
- Test system: CSNK1A1
- CONDITION_PARAMETERS: concentration: 1 μM, replicates: in singlicate; n = 1
Field note: include the unit after the figure.

Please tell me: %Inh of CN(C)Cc1ccc(-c2ccc3c(Nc4ccc(Oc5ccccn5)cc4)ccnc3c2)o1 , system CSNK1A1?
0%

Here is the next molecule: O=C(Nc1cccc(-c2nn3ncccc3c2-c2ccnc(Nc3ccccc3)n2)c1)c1c(F)cccc1F
0%

Same thing, different molecule: Cc1occc1-c1ncc(OC[C@@H](N)Cc2c[nH]c3ccccc23)cc1-c1ccc2[nH]nc(C)c2c1.O=C(O)C(F)(F)F
97%

Likewise for CN(C)S(=O)(=O)c1cc(-c2ccc3nccc(-c4cccc(S(N)(=O)=O)c4)c3c2)cnc1N ?
49%

# repeat for COC(=O)Nc1nc2ccc(Oc3ccc(NC(=O)Nc4cc(C(F)(F)F)ccc4F)cc3)cc2n1C.Cl
0%

Now consider CNC(=O)c1ccccc1Nc1nc(Nc2ccc(N3CCOCC3)cc2)ncc1Cl.Cl and answer again.
30%

Now the same for C[C@@H]1CC[C@@H](C(=O)Nc2ccccc2)CN1c1cc(-c2ccc3c(N)n[nH]c3c2)nc(N)n1
0%

* * *

- Tested on: WEE2
- CONDITION_PARAMETERS: concentration: 1 μM, replicates: in singlicate; n = 1
MEASURED_PROPERTY: %Inh (%)
// note: answer is a bare numeric in %

COc1cc(Nc2nccc(-c3c(-c4cccc(NC(=O)c5c(F)cccc5F)c4)nn4ncccc34)n2)cc(OC)c1OC [GSK327238]: 5
C[C@@H]1CC[C@@H](C(=O)Nc2ccccc2)CN1c1cc(-c2ccc3c(N)n[nH]c3c2)nc(N)n1 [GSK2286062]: 0
COCCOCCOc1cc2ncc3c4ccc(C#N)cc4[nH]c3c2cc1OC: 15
COc1cccc(C(=O)Nc2cccc(Oc3ccc4nc(NC(=O)C5CC5)cn4n3)c2)c1: 20
COc1ccc(Nc2nccc(NCCNC(=O)c3cc4ccccc4s3)n2)cc1 [GSK1379896]: 0

What value of %Inh has been reported for the following compound? Cl.Cl.NCC(NCc1ccc(-c2ccnc3[nH]ccc23)s1)c1ccccc1 (centres unmarked) [GSK1321565]
0

Ok, now O=c1[nH]cc(-c2ccc(N3CCOCC3)cc2)c2sc(-c3cn[nH]c3)cc12 [GSK2276055]
0

What do you get for CSc1cccc2c(-c3ccncn3)c(-c3ccc(F)cc3)nn12 [GW514786] ?
1
